# MEASUREMENT_TARGET: 6His-Tev-LRRK2 (1326-2527) (Homo sapiens, UniProt Q5S007)
# Construct: A LRRK2 cDNA encoding residues 1326-2527 was received from Dundee University; made in house; host or cells: Spodoptera frugiperda (Sf9) insect cells, baculovirus
# PROTOCOL_DESCRIPTION: LRRK2 peptide substrate assay
# Assay type: biochemical
# ASSAY_CONTEXT: mean pIC50; Biotin-LRRKtide peptide substrate, ATP at Km; read-out: LRRK2 peptide substrate assay (pIC50) (converted)
Property: log10(IC50); scope: individual compounds
MEASURED_ENDPOINT: log10(IC50) (log10 of the value in nM)

{"RECORD_SMILES": "COCCn1cc(-c2ccc(OCc3ccc(F)cc3)c(C(=O)Nc3cccnc3)c2)cn1", "MEASURED_ENDPOINT": "log10(IC50)", "VAL": 0.50}
{"RECORD_SMILES": "O=C(Nc1cccnc1)c1cc(CN2CCOCC2)ccc1OCc1ccc(F)cc1", "MEASURED_ENDPOINT": "log10(IC50)", "VAL": 1.30}
{"RECORD_SMILES": "Cc1nocc1NC(=O)c1cc(-c2cnn(CCN3CCOCC3)c2)ccc1OCc1ccc(F)cc1", "MEASURED_ENDPOINT": "log10(IC50)", "VAL": 1.10}
{"RECORD_SMILES": "O=C(Nc1cccnc1)c1cc(CN2CCOCC2)ccc1OCc1ccccc1", "MEASURED_ENDPOINT": "log10(IC50)", "VAL": 1.20}
{"RECORD_SMILES": "O=C(Nc1cccnc1F)c1cc(C(=O)N2CCOCC2)ccc1OCc1ccc(F)cc1", "MEASURED_ENDPOINT": "log10(IC50)", "VAL": 1.60}
{"RECORD_SMILES": "Cn1cc(-c2ccc(OCc3ccc(F)cc3)c(C(=O)Nc3ccnnc3)c2)cn1", "MEASURED_ENDPOINT": "log10(IC50)", "VAL": 1.10}
{"RECORD_SMILES": "O=C(Nc1cccnc1)c1cc(CCCN2CCOCC2)ccc1OCc1ccc(F)cc1", "MEASURED_ENDPOINT": "log10(IC50)", "VAL": 2.00}
{"RECORD_SMILES": "O=C(Nc1cccnc1)c1cc(C(=O)N2CCOCC2)ccc1OCc1ccc(F)cc1", "MEASURED_ENDPOINT": "log10(IC50)", "VAL": 1.80}
{"RECORD_SMILES": "O=C(Nc1cccnc1)c1cc(-c2cnn(CCN3CCOCC3)c2)ccc1OCc1ccc(F)cc1", "MEASURED_ENDPOINT": "log10(IC50)", "VAL": 0.90}
{"RECORD_SMILES": "O=C(Nc1cccnc1)c1cc(C(=O)N2CCOCC2)ccc1OCc1ccccc1", "MEASURED_ENDPOINT": "log10(IC50)", "VAL": 1.90}

----------
# MEASUREMENT_TARGET: 6His-Tev-LRRK2 (1326-2527) (Homo sapiens, UniProt Q5S007)
# Construct: A LRRK2 cDNA encoding residues 1326-2527 was received from Dundee University; made in house; host or cells: Spodoptera frugiperda (Sf9) insect cells, baculovirus
# PROTOCOL_DESCRIPTION: LRRK2 peptide substrate assay
# Format: biochemical
# ASSAY_CONTEXT: Biotin-LRRKtide peptide substrate, ATP at Km; read-out: pIC50 in the LRRK2 peptide substrate assay (converted)
MEASURED_ENDPOINT: IC50

{"COMPOUND": "O=C(Nc1cccnc1)c1cc(-c2cn[nH]c2)ccc1OCc1ccccc1 [Example 99]", "VAL": "≤ 10 nM"}
{"COMPOUND": "O=C(Nc1ccnnc1)c1cc(-c2cn[nH]c2)ccc1OCc1ccc(F)c(F)c1 [Example 108]", "VAL": "≤ 100 nM"}
{"COMPOUND": "Cc1oncc1NC(=O)c1cc(-c2cnn(C)c2)ccc1OCc1ccc(F)cc1 [Example 135]", "VAL": "≤ 100 nM"}
{"COMPOUND": "O=C(Nc1cccnc1)c1cc(C(=O)N2CCOCC2)ccc1OCc1ccc(F)cc1 [Example 127]", "VAL": "≤ 100 nM"}
{"COMPOUND": "COC(=O)NCc1ccc(OCc2ccccc2)c(C(=O)Nc2cccnc2)c1 [Example 86]", "VAL": "≤ 10 nM"}
{"COMPOUND": "O=C(Nc1ccnnc1)c1cc(-c2ccncc2)ccc1OCc1ccc(F)c(F)c1 [Example 106]", "VAL": "≤ 100 nM"}
{"COMPOUND": "Cn1nccc1-c1ccc(OCc2ccc(F)cc2)c(C(=O)Nc2cccnc2)c1 [Example 95]", "VAL": "≤ 100 nM"}
{"COMPOUND": "CN1CCC(Oc2ccc(OCc3ccccc3)c(C(=O)Nc3cccnc3)c2)CC1 [Example 31]", "VAL": "≤ 100 nM"}
{"COMPOUND": "NCCOCCOc1ccc(OCc2ccccc2)c(C(=O)Nc2cccnc2)c1 [Example 49]", "VAL": "≤ 10 nM"}
{"COMPOUND": "O=C(Nc1cccnc1)c1cc(CN2CCCC2)ccc1OCc1ccccc1 [Example 70]", "VAL": "≤ 100 nM"}
{"COMPOUND": "COc1cccc(COc2ccc(-c3cnn(C)c3)cc2C(=O)Nc2cccnc2)c1 [Example 115]", "VAL": "≤ 100 nM"}
{"COMPOUND": "O=C(Nc1ccnnc1)c1cc(CN2CCOCC2)ccc1OCc1ccc(F)cc1 [Example 119]", "VAL": "≤ 100 nM"}
{"COMPOUND": "CN1CCC[C@H]1COc1ccc(OCc2ccccc2)c(C(=O)Nc2cccnc2)c1 [Example 47]", "VAL": "≤ 10 nM"}
{"COMPOUND": "O=C(Nc1cncc(F)c1)c1cc(-c2ccncc2)ccc1OCc1ccccc1 [Example 102]", "VAL": "≤ 100 nM"}
{"COMPOUND": "O=C(Nc1cccnc1)c1cc(-c2ccncc2)ccc1OCc1ccc(F)cc1 [Example 90]", "VAL": "≤ 10 nM"}
{"COMPOUND": "O=C(Nc1cccnc1)c1cc(C(=O)N2CCOCC2)ccc1OCc1ccccc1 [Example 38]", "VAL": "≤ 100 nM"}
{"COMPOUND": "O=C(Nc1cccnc1)c1cc(-c2ccnc(F)c2)ccc1OCc1ccccc1 [Example 104]", "VAL": "≤ 10 nM"}
{"COMPOUND": "O=C(Nc1cccnc1)c1cc(-c2ccncc2)ccc1OCc1ccc(F)c(F)c1 [Example 109]", "VAL": "≤ 100 nM"}

----------
# MEASUREMENT_TARGET: 6His-Tev-LRRK2 (1326-2527) (Homo sapiens, UniProt Q5S007)
# Construct: A LRRK2 cDNA encoding residues 1326-2527 was received from Dundee University; made in house; host or cells: Spodoptera frugiperda (Sf9) insect cells, baculovirus
# Sequence (Q5S007 1326-2527): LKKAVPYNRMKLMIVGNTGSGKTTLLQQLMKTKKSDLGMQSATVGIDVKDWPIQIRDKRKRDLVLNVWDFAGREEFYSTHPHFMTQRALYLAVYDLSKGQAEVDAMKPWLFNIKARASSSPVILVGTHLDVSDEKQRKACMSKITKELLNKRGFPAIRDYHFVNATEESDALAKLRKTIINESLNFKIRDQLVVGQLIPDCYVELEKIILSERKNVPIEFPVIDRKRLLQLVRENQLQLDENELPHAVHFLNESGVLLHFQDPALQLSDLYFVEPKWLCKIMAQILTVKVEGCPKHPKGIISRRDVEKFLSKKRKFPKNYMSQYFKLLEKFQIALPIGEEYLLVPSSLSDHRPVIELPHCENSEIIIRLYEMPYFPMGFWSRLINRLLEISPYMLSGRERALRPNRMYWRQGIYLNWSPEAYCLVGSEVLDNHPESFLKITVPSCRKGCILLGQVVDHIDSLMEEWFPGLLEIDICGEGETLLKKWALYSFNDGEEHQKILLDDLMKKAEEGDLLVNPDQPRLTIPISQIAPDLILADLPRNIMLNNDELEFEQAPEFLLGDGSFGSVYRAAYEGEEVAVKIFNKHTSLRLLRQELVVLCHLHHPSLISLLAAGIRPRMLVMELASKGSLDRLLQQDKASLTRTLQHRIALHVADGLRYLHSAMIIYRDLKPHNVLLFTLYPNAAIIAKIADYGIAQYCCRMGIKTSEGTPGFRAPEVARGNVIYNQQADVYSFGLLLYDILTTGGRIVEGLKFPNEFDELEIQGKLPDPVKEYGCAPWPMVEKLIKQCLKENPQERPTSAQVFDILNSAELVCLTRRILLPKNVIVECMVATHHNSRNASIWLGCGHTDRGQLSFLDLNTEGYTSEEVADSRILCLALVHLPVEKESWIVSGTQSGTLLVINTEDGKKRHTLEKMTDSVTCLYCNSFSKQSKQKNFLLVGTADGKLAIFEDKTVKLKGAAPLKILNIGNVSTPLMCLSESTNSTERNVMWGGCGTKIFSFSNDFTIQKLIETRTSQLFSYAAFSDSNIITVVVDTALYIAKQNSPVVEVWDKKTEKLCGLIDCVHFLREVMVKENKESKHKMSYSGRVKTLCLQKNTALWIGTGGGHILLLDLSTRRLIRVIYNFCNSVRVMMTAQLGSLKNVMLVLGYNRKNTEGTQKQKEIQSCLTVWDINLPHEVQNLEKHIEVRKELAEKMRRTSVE
# PROTOCOL_DESCRIPTION: LRRK2 peptide substrate assay
# Format: biochemical
# ASSAY_CONTEXT: Biotin-LRRKtide peptide substrate, ATP at Km; read-out: pIC50 in the LRRK2 peptide substrate assay (converted)

{"RECORD_SMILES": "O=C(Nc1cccnc1F)c1cc(C(=O)N2CCOCC2)ccc1OCc1ccc(F)cc1F", "MEASUREMENT_TARGET": "6His-Tev-LRRK2 (1326-2527) (Homo sapiens, UniProt Q5S007)", "IC50": "≤ 100 nM"}
{"RECORD_SMILES": "O=C(Nc1cccnc1)c1cc(O)ccc1OCc1ccccc1", "MEASUREMENT_TARGET": "6His-Tev-LRRK2 (1326-2527) (Homo sapiens, UniProt Q5S007)", "IC50": "≤ 100 nM"}
{"RECORD_SMILES": "O=C(Nc1cccnc1)c1cc(Br)ccc1OCc1ccccc1", "MEASUREMENT_TARGET": "6His-Tev-LRRK2 (1326-2527) (Homo sapiens, UniProt Q5S007)", "IC50": "≤ 100 nM"}
{"RECORD_SMILES": "CN(C)Cc1ccc(OCc2ccccc2)c(C(=O)Nc2cccnc2)c1", "MEASUREMENT_TARGET": "6His-Tev-LRRK2 (1326-2527) (Homo sapiens, UniProt Q5S007)", "IC50": "≤ 100 nM"}
{"RECORD_SMILES": "Cn1cc(-c2ccc(OCc3ccc(F)c(F)c3)c(C(=O)Nc3ccnnc3)c2)cn1", "MEASUREMENT_TARGET": "6His-Tev-LRRK2 (1326-2527) (Homo sapiens, UniProt Q5S007)", "IC50": "≤ 100 nM"}
{"RECORD_SMILES": "Cn1cc(-c2ccc(OCc3ccccc3C#N)c(C(=O)Nc3cccnc3)c2)cn1", "MEASUREMENT_TARGET": "6His-Tev-LRRK2 (1326-2527) (Homo sapiens, UniProt Q5S007)", "IC50": "≤ 100 nM"}
{"RECORD_SMILES": "CN1CCC[C@@H]1COc1ccc(OCc2ccccc2)c(C(=O)Nc2cccnc2)c1", "MEASUREMENT_TARGET": "6His-Tev-LRRK2 (1326-2527) (Homo sapiens, UniProt Q5S007)", "IC50": "≤ 10 nM"}
{"RECORD_SMILES": "CNCCOc1ccc(OCc2ccccc2)c(C(=O)Nc2cccnc2)c1", "MEASUREMENT_TARGET": "6His-Tev-LRRK2 (1326-2527) (Homo sapiens, UniProt Q5S007)", "IC50": "≤ 100 nM"}
{"RECORD_SMILES": "N#Cc1ccc(OCc2ccccc2)c(C(=O)Nc2cccnc2)c1", "MEASUREMENT_TARGET": "6His-Tev-LRRK2 (1326-2527) (Homo sapiens, UniProt Q5S007)", "IC50": "≤ 100 nM"}

Reference for the values: patent US8778939B2
